Let's look at some binders and their measured Anti-PSMA Fab signal in the presence of PSMA.
molecular target: T1, Anti-PSMA Fab (SEQ ID NOs: 19, 20); assay: phage binding ELISA on captured anti-PSMA Fab; competitor: PSMA antigen pre-incubated in the wells
T1 construct: Biotinylated PSMA Fab captured on neutravidin coated plates in the phage ELISA; also called 006 PSMA Fab
Where no end group is shown, it is not given here.
endpoint: Anti-PSMA Fab signal in the presence of PSMA

| binder | testValue |
| --- | --- |
| DFRWCIPEWMCTGY [Phage-1863] | 0.11 |
| VEHWCIPAWMCEWM [Phage-1873] | 0.12 |
| EFIWCRPAWMCMDV [Phage-1870] | 0.0681 |
| IMKWCIPEWMCYFF [Phage-1864] | 0.1 |
| EITRCIPAWMCDFW [Phage-1865] | 0.081 |
| MEKLCKPAWMCSML [Phage-1868] | 0.0627 |
| HVKWCIPAWMCEAS [Phage-1871] | 0.0972 |
| LDKWCIPEWMCFDY [Phage-1862] | 0.0678 |
| FVPWCIPAWMCAEN (cysteine pairing not given here; also: displayed on phage as pIII fusion, pIII sequence and linker not given here) [Phage-1875] | 0.111 |
| SIKMCIPQWMCVMQ [Phage-1869] | 0.179 |
| VMKWCIPEWMCQHT [Phage-1872] | 0.199 |
| WENRCTPAWMCKGF [Phage-1867] | 0.0837 |
| WEHWCRPAWMCESL [Phage-1866] | 0.134 |
| AVKLCIPEWMCVGQ [Phage-1861] | 0.0676 |
| SPKWCTPEWMCSHL [Phage-1874] | 0.127 |
